// reported self-splicing fitness (ln) per item
protocol-notes: self-splicing fitness, log relative to wild type (ln ratio); higher = more splicing; Tetrahymena group I intron in knt gene, E. coli kanamycin selection, DiMSum; sequences stand for … in CUCUCU…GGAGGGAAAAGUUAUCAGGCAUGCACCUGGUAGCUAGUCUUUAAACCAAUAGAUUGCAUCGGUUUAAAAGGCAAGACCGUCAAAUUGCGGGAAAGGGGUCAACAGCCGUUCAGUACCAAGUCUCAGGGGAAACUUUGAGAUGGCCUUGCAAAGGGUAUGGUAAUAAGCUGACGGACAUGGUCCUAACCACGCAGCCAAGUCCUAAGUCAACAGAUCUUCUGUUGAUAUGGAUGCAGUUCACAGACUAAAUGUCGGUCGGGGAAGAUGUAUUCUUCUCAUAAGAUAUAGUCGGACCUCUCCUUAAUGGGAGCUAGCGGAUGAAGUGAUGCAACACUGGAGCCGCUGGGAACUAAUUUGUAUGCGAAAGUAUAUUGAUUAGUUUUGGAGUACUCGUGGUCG;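 also: selection with 25 µg/mL kanamycin versus none on LB agar overnight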
condition-parameters: 37 °C

The reported value for AAAAAGCAAUAUUACGGCUG in terms of self-splicing fitness (ln) is -0.345

The reported value for UUCCAGCAAUAUUACGGCGG in terms of self-splicing fitness (ln) is -2.72

New cases:
The reported value for CGGCAGCAAUAUUACGCACU in terms of self-splicing fitness (ln) is -0.361

The reported value for AAAUAGCAAUAUUACGAGAG in terms of self-splicing fitness (ln) is -2.49

The reported value for ACGCAGCAAUAUUACGUUGC in terms of self-splicing fitness (ln) is -2.75

The reported value for AAAAAGCAAUAUUACGGAAU in terms of self-splicing fitness (ln) is -1.36

The reported value for CCCAAGCAAUAUUACGUAAU in terms of self-splicing fitness (ln) is -2.97
